Below: a set of entries, each annotated with reported T/C.
# Tested on: BDF1 mice, P388 leukemia ip, median survival T/C
# ASSAY PROTOCOL: NCI In Vivo Anticancer Drug Screen. Data for tumor model P388 Leukemia (intraperitoneal) in B6D2F1 (BDF1) mice
# RECORDED CONDITIONS: endpoint: median survival time; dose: 100.0 mg/kg/injection; schedule: Q01DX009 (ip); vehicle: saline with Tween-80; higher = longer survival
Inconclusive results and toxic doses are left out.

MOLECULE	TARGET OR SYSTEM	EXPERIMENTAL READOUT	RESULT
c1ccc2c(c1)ccc1nc3c4ccccc4c4ccccc4c3nc12	BDF1 mice, P388 leukemia ip, median survival T/C	T/C	113 % of control
O=C(C(=O)c1ccc(Br)cc1)c1ccc(Br)cc1	BDF1 mice, P388 leukemia ip, median survival T/C	T/C	96 % of control
OC1CCCC2CCCNC12 (stereo unspecified) (tested in a mixture with another compound)	BDF1 mice, P388 leukemia ip, median survival T/C	T/C	100 % of control
CCCCCCCCSC(=S)N(C)NC(=O)c1ccccn1	BDF1 mice, P388 leukemia ip, median survival T/C	T/C	105 % of control
O=C(O)c1c(I)c(I)c(I)c(I)c1C(=O)c1ccccc1	BDF1 mice, P388 leukemia ip, median survival T/C	T/C	111 % of control
COc1ccc(/C=C2\CCC3C(CCCC34OCCO4)C2=O)cc1 (stereo unspecified)	BDF1 mice, P388 leukemia ip, median survival T/C	T/C	104 % of control
Cc1cccc(C(=O)/C=C/c2ccc(OCc3ccccc3)cc2)c1	BDF1 mice, P388 leukemia ip, median survival T/C	T/C	91 % of control
CC(=O)OC1OC(CSC(=N)N)C(OC(C)=O)C(OC(C)=O)C1OC(C)=O (stereo unspecified)	BDF1 mice, P388 leukemia ip, median survival T/C	T/C	119 % of control
COc1cccc(CCNC(=O)CC#N)c1	BDF1 mice, P388 leukemia ip, median survival T/C	T/C	100 % of control
CCOC(=O)C(=O)CC(=O)/C=C/c1ccccc1	BDF1 mice, P388 leukemia ip, median survival T/C	T/C	96 % of control

Then there is this molecule:
Per the record, CC(C(=O)O)c1ccc2c(c1)[nH]c1ccc(Cl)cc12 (stereo unspecified) has T/C of 89 % of control

----------
# Test system: BDF1 mice, P388 leukemia ip, median survival T/C
# ASSAY PROTOCOL: NCI In Vivo Anticancer Drug Screen. Data for tumor model P388 Leukemia (intraperitoneal) in B6D2F1 (BDF1) mice
# RECORDED CONDITIONS: endpoint: median survival time; dose: 400.0 mg/kg/injection; schedule: Q01DX009 (ip); vehicle: saline with Tween-80; higher = longer survival
Inconclusive results and toxic doses are left out.
EXPERIMENTAL READOUT: T/C

MOLECULE	T/C
CC(=O)OC1CCC2(C)CCCC(O)C2(O)C1 (stereo unspecified)	103 % of control

Data point: O=C(N/N=C/c1cccc(S(=O)(=O)O)c1)c1ccncc1 ; T/C = 94 % of control

# molecule CS(=O)(=O)OCC(O)C(O)COS(C)(=O)=O (stereo unspecified) ; its T/C = 87 % of control

Record O=C(NC(=S)N1CCOCC1)c1ccccc1 . Reported T/C: 97 % of control

----------
# Test system: BDF1 mice, P388 leukemia ip, median survival T/C
# ASSAY PROTOCOL: NCI In Vivo Anticancer Drug Screen. Data for tumor model P388 Leukemia (intraperitoneal) in B6D2F1 (BDF1) mice
# RECORDED CONDITIONS: endpoint: median survival time; dose: 5.0 mg/kg/injection; schedule: Q01DX009 (ip); vehicle: Klucel (hydroxypropylcellulose) (HPC)
Inconclusive results and toxic doses are left out. Rule for the calls: active = survival T/C of 150% or more; inactive = T/C below 125% in these data.
Hi! Could you answer with just one of these? y = active, n = inactive

Please review the following examples before continuing.
COMPOUND	CLASS NAME
N/C(=N\O)c1cn(C2OC(CO)C(O)C2O)c2ncnc(N)c12 (stereo not given)	y
C=C1C(=O)C2(C)OC2(C)C1C(=O)O (stereo not given)	n
COC1(c2ccco2)OC1(C)C (stereo not given)	n
C[C@]12CC[C@H](O)C[C@@]1(O)CC[C@@H]1[C@@H]2CC[C@]2(C)[C@@H](c3ccc(=O)oc3)CC[C@]12O	n

Turning to the following compound.
Query block: Would you mind telling me which call this test gave COc1ccc(/C=C/c2ccc3ccccc3[n+]2C)c(OC)c1OC ?
Result block: n

----------
# Test system: BDF1 mice, P388 leukemia ip, median survival T/C
# ASSAY PROTOCOL: NCI In Vivo Anticancer Drug Screen. Data for tumor model P388 Leukemia (intraperitoneal) in B6D2F1 (BDF1) mice
# RECORDED CONDITIONS: endpoint: median survival time; dose: 1.56 mg/kg/injection; schedule: Q01DX009 (ip); vehicle: Klucel (hydroxypropylcellulose) (HPC)
Toxic doses and inconclusive results are not listed. The calls were made as follows: active = survival T/C of 150% or more; inactive = T/C below 125% in these data.
Select the correct class. Options are active, inactive and nothing else.

Previously resolved entries follow.
COMPOUND	CLASS NAME
N#CC(C#N)=C(C#N)C#N	inactive
C=[CH][Sn]([CH]=C)([CH]=C)[O]C(C)=O	inactive
CC1CC2=CC(=O)C=CC2(C)C2CCC3(C)C(O)CCC3C12 (centres undefined)	inactive

Attention now shifts to the item below.
Query block: Which result was noted for this compound in the test: Cc1ccnc(NS(=O)(=O)c2ccc(N=Nc3nc4[nH]c(N)nc(=S)c4[nH]3)cc2)n1
Result block: active

----------
# Test system: BDF1 mice, P388 leukemia ip, median survival T/C
# ASSAY PROTOCOL: NCI In Vivo Anticancer Drug Screen. Data for tumor model P388 Leukemia (intraperitoneal) in B6D2F1 (BDF1) mice
# RECORDED CONDITIONS: endpoint: median survival time; dose: 400.0 mg/kg/injection; schedule: Q01DX001 (ip); vehicle: Klucel (hydroxypropylcellulose) (HPC); higher = longer survival
Toxic doses and inconclusive results are not listed.
EXPERIMENTAL READOUT: T/C

Check out these entries, answers already filled in.
COMPOUND	T/C
C/C=C(/C)N(C(C)=O)N(C(C)=O)c1ccc([N+](=O)[O-])cc1[N+](=O)[O-]	109 % of control
Cc1nc(N)[nH]c(=O)c1CCCNc1cccc(C(F)(F)F)c1	104 % of control
CC(=O)c1cnn(-c2ccccc2)c1C	109 % of control
Cc1ccc(-c2nc3sccn3c2/C=N/NS(=O)(=O)c2ccc(C)cc2)cc1	101 % of control
O=C(c1ccccc1)C1Cc2ccccc2C1=O (stereo unspecified)	95 % of control

Cc1noc(/N=C/c2ccccc2)c1C has a reported T/C of 112 % of control

----------
# System: BDF1 mice, P388 leukemia ip, median survival T/C
# ASSAY PROTOCOL: NCI In Vivo Anticancer Drug Screen. Data for tumor model P388 Leukemia (intraperitoneal) in B6D2F1 (BDF1) mice
# RECORDED CONDITIONS: endpoint: median survival time; dose: 100.0 mg/kg/injection; schedule: Q01DX009 (ip); vehicle: water; higher = longer survival
Inconclusive results and toxic doses are left out.
# T/C per record follows

MOLECULE	TARGET OR SYSTEM	EXPERIMENTAL READOUT	RESULT
c1ccc(CN(CCNc2ccccc2)c2ccccc2)cc1	BDF1 mice, P388 leukemia ip, median survival T/C	T/C	115 % of control
Cc1cn(C)c2nccnc12	BDF1 mice, P388 leukemia ip, median survival T/C	T/C	100 % of control
C=CC[N+](C)(CC=C)CC[N+](C)(CC=C)CC=C	BDF1 mice, P388 leukemia ip, median survival T/C	T/C	104 % of control
Nc1ncnc2nc[nH]c12.[Cl][Pt][Cl]	BDF1 mice, P388 leukemia ip, median survival T/C	T/C	114 % of control
c1ccc(-c2c(-c3ccccc3)c(-c3ccccc3)c(-c3ccccc3)c(-c3ccccc3)c2-c2ccccc2)cc1	BDF1 mice, P388 leukemia ip, median survival T/C	T/C	89 % of control

O=C(NC1CSSC1)C(Cc1ccccc1)N1C(=O)c2ccccc2C1=O (centres undefined) has a reported T/C of 108 % of control

Value of T/C reported for the molecule Clc1ccc(-c2cc(=[N+]3CCOCC3)ss2)cc1 is 111 % of control

For reference, reported T/C for O=c1[nH]c(=O)c2nccnc2[nH]1 stands at 104 % of control

Measured T/C of COc1ccc(C2C=C(c3ccc4c(c3)OCO4)Oc3c2c(=O)oc2ccccc32)cc1OC (centres undefined) : 99 % of control

----------
# Tested on: BDF1 mice, P388 leukemia ip, median survival T/C
# ASSAY PROTOCOL: NCI In Vivo Anticancer Drug Screen. Data for tumor model P388 Leukemia (intraperitoneal) in B6D2F1 (BDF1) mice
# RECORDED CONDITIONS: endpoint: median survival time; dose: 200.0 mg/kg/injection; schedule: Q04DX003 (ip); vehicle: saline with Tween-80; higher = longer survival
# Protocol: The antitumor activity of compounds was measured in mice bearing transplantable tumors. Survival or tumor size were measured and the results are expressed as the measurement made in the treated group (T) divided by the measurement made in the vehicle treated control group (C). The tumor model used in this assay is P388 Leukemia (intraperitoneal) in B6D2F1 (BDF1) mice
Inconclusive results and toxic doses are left out.
EXPERIMENTAL READOUT: T/C

These solved cases illustrate the format of a correct answer.
COMPOUND	TARGET OR SYSTEM	RESULT
O=C(O)CC/C(=N\O)c1cccc([N+](=O)[O-])c1	BDF1 mice, P388 leukemia ip, median survival T/C	100 % of control
C[N+](C)(Cn1nc(Cl)c2ccc([N+](=O)[O-])cc21)Cn1nc(Cl)c2ccc([N+](=O)[O-])cc21	BDF1 mice, P388 leukemia ip, median survival T/C	108 % of control

The compound identified as CCCCNC(=O)Nc1ccc(N(CC)CC)cc1 registered its T/C at 100 % of control

# compound Oc1ccc(C2N(c3ccccc3)CCN2c2ccccc2)cc1 ; its T/C = 86 % of control

// field: T/C; key: CCCCCC(C)C(=O)CCCC (stereo not given) (tested in a mixture with another compound) ; value = 100 % of control

Per the record, CC(=O)OCC(=O)[C@@]1(O)CC[C@H]2[C@@H]3C=C(C)C4=CC(=O)CC[C@]4(C)[C@H]3[C@@H](O)C[C@@]21C has T/C of 95 % of control

Just so you know, measured T/C for C=CCCCCCCCCC(=O)Cl came out at 104 % of control

Source listed as PubChem BioAssay AID328.
